This collection of values is drawn from ChEMBL document CHEMBL4390662.

# assayOverview: Selectivity index, ratio of IC50 for human WI38 cells to IC50 for mouse NFS60 cells
endpointLabel: Ratio IC50
Could you respond with only the numeric value?

Recorded Ratio IC50 for O=C(OC1(C(=O)Nc2ccc([N+](=O)[O-])cc2)CCCCC1)c1ccc(C(F)(F)F)cc1 , please?
7.115

Recorded Ratio IC50 for O=C(OC1(C(=O)Nc2ccc([N+](=O)[O-])cc2)CCCCC1)c1ccccc1 , please?
0.322

Recorded Ratio IC50 for O=C(Cc1ccccc1)OC1(C(=O)Nc2ccc([N+](=O)[O-])cc2)CCCCC1 , please?
5.419

Recorded Ratio IC50 for CCC(=O)OC1(C(=O)Nc2ccc([N+](=O)[O-])cc2)CCCCC1 , please?
6.968

Recorded Ratio IC50 for Cc1ccc(C(=O)OC2(C(=O)Nc3ccc([N+](=O)[O-])cc3)CCCCC2)cc1 , please?
0.704

Recorded Ratio IC50 for O=C1OC2(CCCCC2)C(=O)N1c1ccc([N+](=O)[O-])cc1 , please?
3.897
